I'd appreciate it if you could supply pIC50 values for the items below.
System: MYB mRNA
measurement_description: RT-qPCR splicing assay, MYB canonical (CJ) and alternative (AJ) junction mRNA
Type: cell-based, human
conditions_used: Homo sapiens, Table 4B; gene panel; read-out: MYB (IC50, decrease in CJ mRNA levels)
pIC50: −log10 of the molar value.

> print(dat)
                                   compound  experimental.target  result
1  Cn1ccc2cc(O)c(-c3cnc(N4CCC(NC(C)(C)C)C4)nn3)cc2c1=O (centres unmarked)             MYB mRNA  < 5.00

Record pIC50 for all entries; do not skip any.
1. Cc1nc2cc(O)c(-c3cnc(N4CC[C@H](N(C)C(C)(C)C)C4)nn3)cc2o1
2. Cn1cc2cc(-c3ccc(N4CCC(NC(C)(C)C)C4)nn3)c(O)cc2n1 (centres unmarked)

6.00 to 7.00
5.00 to 6.00

Record pIC50 for all entries; do not skip any.
1. Cc1nc2cc(O)c(-c3ccc(N4CC[C@H](NC(C)(C)C)C4)nn3)cc2o1
2. Cc1nc2ccc(-c3ccc(N4CCC(NC(C)(C)C)C4)nn3)nc2o1 (centres unmarked)
3. Cn1cc2cc(-c3cnc(N4CC[C@@H](NC(C)(C)C)C4)nn3)c(O)cc2n1
4. Cc1nc2cc(O)c(-c3ccc(N4CCC(C)(NC(C)(C)C)C4)nn3)cc2o1 (centres unmarked)
5. CC(C)(C)NC1CCN(c2ccc(-c3cc4oc(CC#N)nc4cc3O)nn2)C1 (centres unmarked)

1. 5.00 to 6.00
2. 6.00 to 7.00
3. 5.00 to 6.00
4. 5.00 to 6.00
5. 5.00 to 6.00
